- tested_on: PRMT5 (Homo sapiens)
- Construct: purchased Viva (custom protein)
- Sequence (O14744 whole entry): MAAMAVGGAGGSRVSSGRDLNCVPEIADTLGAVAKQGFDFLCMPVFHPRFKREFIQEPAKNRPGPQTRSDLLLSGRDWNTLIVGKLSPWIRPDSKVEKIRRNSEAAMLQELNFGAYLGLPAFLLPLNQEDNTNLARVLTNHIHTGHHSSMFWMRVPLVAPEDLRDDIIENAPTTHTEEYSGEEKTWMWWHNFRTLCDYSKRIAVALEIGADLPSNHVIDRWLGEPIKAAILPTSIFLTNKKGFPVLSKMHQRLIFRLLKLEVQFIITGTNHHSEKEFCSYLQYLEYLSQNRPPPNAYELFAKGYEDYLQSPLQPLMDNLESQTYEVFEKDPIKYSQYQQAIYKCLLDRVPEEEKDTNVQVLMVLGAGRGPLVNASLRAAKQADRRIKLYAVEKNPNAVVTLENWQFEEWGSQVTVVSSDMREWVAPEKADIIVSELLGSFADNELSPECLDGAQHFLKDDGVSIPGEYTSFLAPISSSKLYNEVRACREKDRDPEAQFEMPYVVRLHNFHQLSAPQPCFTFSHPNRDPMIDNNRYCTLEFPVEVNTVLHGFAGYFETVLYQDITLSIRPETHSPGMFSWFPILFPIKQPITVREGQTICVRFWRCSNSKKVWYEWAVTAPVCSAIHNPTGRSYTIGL
- Sequence (Q9BQA1 whole entry partner): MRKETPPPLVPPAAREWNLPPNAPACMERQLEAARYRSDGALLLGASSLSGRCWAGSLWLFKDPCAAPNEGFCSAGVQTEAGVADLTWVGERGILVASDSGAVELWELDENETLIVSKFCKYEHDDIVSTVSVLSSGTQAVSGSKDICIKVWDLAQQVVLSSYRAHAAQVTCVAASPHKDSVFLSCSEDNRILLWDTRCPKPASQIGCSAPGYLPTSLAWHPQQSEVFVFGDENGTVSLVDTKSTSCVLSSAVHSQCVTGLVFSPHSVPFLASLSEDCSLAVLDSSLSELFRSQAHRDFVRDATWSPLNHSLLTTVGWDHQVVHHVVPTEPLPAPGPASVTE
- experiment_description: PRMT5 biochemical IC50 assay with MTA as cofactor
- condition_notes: PRMT5, MTA as cofactor; read-out: MTA IC50
pIC50: −log10 of the molar value.
property_label: pIC50

The examples below pair each entry with its known result.
{"compound": "Cc1cc(NC(=O)C(=O)N2C[C@@H](C)CC[C@@H]2c2ccc(-c3ccn[nH]3)cc2)cnc1N (single isomer, unassigned)", "property_label": "pIC50", "value": "> 7.30"}
{"compound": "Cc1cc(NC(=O)C(=O)N2C[C@H](C)CC[C@H]2c2ccc(-c3cn[nH]c3)cc2)cnc1N (single isomer, unassigned) [Compound 628]", "property_label": "pIC50", "value": "6.30 to 7.30"}
{"compound": "Cc1cc(NC(=O)C(=O)N2C[C@H](C)CC[C@H]2c2ccc(-c3nccs3)cn2)cnc1N (racemic)", "property_label": "pIC50", "value": "6.30 to 7.30"}
{"compound": "CC(=O)N1CCC(c2cccc(C3CCCCN3C(=O)C(=O)Nc3cncc(C)c3)c2)CC1 (single isomer, unassigned) [Compound 78]", "property_label": "pIC50", "value": "6.30 to 7.30"}
{"compound": "C[C@@H]1CC[C@@H](c2ccc3c(c2)CCO3)N(C(=O)C(=O)Nc2cncc(C(N)=O)c2)C1 (racemic)", "property_label": "pIC50", "value": "6.30 to 7.30"}

Turning now to a further record.
Dear colleague, please send me the reported pIC50 for Cc1cccc([C@@H]2CCCCN2C(=O)C(=O)Nc2cnc(N)c(C)c2)c1 (single isomer, unassigned) when you can.
6.30 to 7.30

The measured values listed here are drawn from patent US11999727B2.
